Sourced from ChEMBL document CHEMBL1201862

- System: SK-MEL-28
- assay procedure: NCI tumour cell line growth inhibition, 48 h
Active and inactive are the calls of the source. Cut-off read from the data, not from the text of the source: active = GI50 up to about 1.1 µM and inactive = higher.
assay readout: GI50

# molecule, GI50
data = [
    ("O=C(C1OC1c1ccc(Cl)cc1)C12CC3CC(CC(C3)C1)C2 (stereo not given)", "16.5 µM (inactive)"),
    ("COC1C(OC(N)=O)C(O)C(Oc2ccc3c(O)c(NC(=O)c4ccc(O)c(CC=C(C)C)c4)c(=O)oc3c2C)OC1(C)C (stereo not given)", "73.8 µM (inactive)"),
    ("N#C/C(=C\\c1c(O)cc(O)cc1O)C(N)=O", "> 100 µM (inactive)"),
    ("O=C(C/C(=N/O)c1cc(-c2ccccc2)no1)c1ccccc1", "> 100 µM (inactive)"),
]

Here is the next item to consider.
Recorded GI50 for CC(C)(C)OC(=O)[C@@H]1CCC(=O)N1C1(c2ccccc2)c2ccccc2-c2ccccc21 with SK-MEL-28, please?
28.6 µM (inactive)

====

- Tested on: NCI-H522
- assay procedure: NCI tumour cell line growth inhibition, 48 h
Activity calls are given as the source filed them. Rule as the data show it: active = GI50 up to about 1.1 µM and inactive = higher.
// reported GI50 for each item listed

Study these solved cases before continuing.
# molecule, assay target, endpoint value
rows = [
    ("Nc1nc2c(c(-c3ccc(F)cc3)n1)COC/C2=C\\c1ccc(F)cc1", "NCI-H522", "10.8 µM (inactive)"),
    ("COc1cccc(C23CCCC(C2)NCC3Br)c1OC (centres undefined)", "NCI-H522", "10.2 µM (inactive)"),
    ("C[N+]1(C)[C@@H]2CC[C@H]1C[C@@H](OC(=O)C(CO)c1ccccc1)C2 (some centres undefined) [ATROPINE METHYLBROMIDE]", "NCI-H522", "> 100 µM (inactive)"),
]

Here is the next item to consider.
Need GI50 of COC(=O)C1=C2Nc3ccccc3C23CCN2C(O)C4(CC5CC67CCOC6CCN6CCC8(c9cccc(OC)c9N(C4)C58O)C67)C4OCCC4(C1)C23 (centres undefined) , thanks.
36.4 µM (inactive)

====

- Tested on: SK-MEL-28
- assay procedure: NCI tumour cell line growth inhibition, 48 h
Activity calls are given as the source filed them. Cut-off read from the data, not from the text of the source: active = GI50 up to about 1.1 µM and inactive = higher.
// reported GI50 for each item listed

# compound, endpoint value
records = [
    ("O=C(/C=C/c1ccc(-c2ccccc2[N+](=O)[O-])o1)NCc1ccc(C(=O)NCCc2ccccc2)cc1", "> 100 µM (inactive)"),
    ("O=C1CCC2(CC1)SCCCS2", "> 100 µM (inactive)"),
    ("CC12CC3CC/C(=N\\O)C(C1)C3(N1CCOCC1)C/C2=N/O (stereo unspecified)", "> 100 µM (inactive)"),
    ("CCc1ccc(CCN2CCCCC2)nc1", "> 100 µM (inactive)"),
    ("CCN(CC)CCNC(=O)c1ccc(I)cc1", "> 100 µM (inactive)"),
]

Here is the next item to consider.
Need GI50 of COC(=O)NC1C(C)OC(OC2C/C=C(/C)C3C=CC4C(OC5CC(OC6CC(O)C(OC7CC(O)C(OC)C(C)O7)C(C)O6)C(O)C(C)O5)C(C)CC(C)C4C3(C)C(=O)C3=C(O)C4(CC(C)C(CO)=CC4/C=C\2C)OC3=O)CC1(C)[N+](=O)[O-] (stereo unspecified) , thanks.
11.2 µM (inactive)
